Biological target: human PTP1B (Homo sapiens)
Construct: human PTP1B (amino acid residues 1-321); made in house; host or cells: E. coli BL21(DE3)
Sequence (P18031 1-321): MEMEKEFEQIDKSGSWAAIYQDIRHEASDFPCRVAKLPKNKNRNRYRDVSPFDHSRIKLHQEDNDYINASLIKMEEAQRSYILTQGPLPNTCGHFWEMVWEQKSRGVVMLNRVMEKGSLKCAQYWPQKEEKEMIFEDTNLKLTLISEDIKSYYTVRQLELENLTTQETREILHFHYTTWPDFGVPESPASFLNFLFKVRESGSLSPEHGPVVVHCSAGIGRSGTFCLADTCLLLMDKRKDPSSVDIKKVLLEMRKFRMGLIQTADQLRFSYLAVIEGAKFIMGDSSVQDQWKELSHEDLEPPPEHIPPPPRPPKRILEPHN
Test: PTP1B assay, pNPP hydrolysis, assayed exactly as for PTP1
Type: biochemical
Settings: Conc 100 uM, Table 2, read-out: PTP1B Inhib PTP1B. % Inhib
RECORDED ENDPOINT: inhibition at 100 µM (%)
Write it as a number; the unit % goes unstated.

Answered cases to consult:
COMPOUND	READOUT NUMBER
CCCCCNC(=O)C(Cc1ccc(OCCOO)c(COO)c1)NC(=O)C(Cc1ccccc1)NC(=O)Cc1ccc(C(F)(F)F)cc1 (stereo not shown)	98
CCCCCNC(=O)C(Cc1ccc(OC(COO)C(=O)O)cc1)NC(=O)NC(Cc1ccc(OCc2ccccc2)cc1)C(=O)O (stereo not shown)	97
CCCCCNC(=O)C(Cc1ccc(OC(COO)COO)cc1)NC(=O)C(Cc1cccc2ccccc12)NC(=O)OC(C)(C)C (stereo not shown)	86
CCCCCNC(=O)C(Cc1ccc(OCCOO)c(COO)c1)NC(=O)C(Cc1ccccc1)NC(=O)CCc1ccccc1 (stereo not shown)	95
CCCCCNC(=O)C(Cc1ccc(OC(COO)COO)cc1)NC(=O)C(Cc1ccccc1)NC(=O)CCOC (stereo not shown)	94

Determine from records and report inhibition at 100 µM for CCCCCNC(=O)C(Cc1ccc(OC(COO)COO)cc1)NC(=O)C(Cc1c(F)c(F)c(F)c(F)c1F)NC(=O)OC(C)(C)C (stereo not shown)
80

Determine from records and report inhibition at 100 µM for CCCCCNC(=O)[C@H](Cc1ccc(OCC(=O)O)c(C(=O)O)c1)NC(=O)C(Cc1ccccc1)NC(=O)Cn1nnnc1S (stereo partly shown)
98

Determine from records and report inhibition at 100 µM for CCCCCNC(=O)C(Cc1ccc(OCCOO)c(COO)c1)NC(=O)C(C)NC(=O)OC(C)(C)C (stereo not shown)
86

Determine from records and report inhibition at 100 µM for CC(C)(C)OC(=O)N[C@@H](Cc1ccccc1)C(=O)N[C@H](CO)Cc1ccc(OCC(=O)O)c(C(=O)O)c1 [drawing 222]
80

Determine from records and report inhibition at 100 µM for CCCCCNC(=O)C(Cc1ccc(OCCOO)c(COO)c1)NC(=O)C(Cc1ccccc1)NC(=O)CCOC (stereo not shown)
97
